Biological target: HIV protease (Human immunodeficiency virus type 1 group M subtype B)
Construct: fluorometric method for measurement of HIV-protease (HIV-PR) activity utilizing a synthetic peptide substrate
Test: biochemical
Details: HIV protease, fluorogenic peptide substrate, pH 4.7, 37° C.; read-out: Apparent Enzyme IC50
Method: Compositions to be subjected to enzyme assay are lyophilited and diluted in DMSO to 100-1000 μM. Compositions having apparent IC50 <1 μm are diluted to 100 μM. […] 2. Dispense the substrate solution into UV-pass fluorescence cuvettes (1 cm pathlength). […] 5. Measure the initial rate of cleavage of fluorogenic substrate by monitoring the increase in fluorescence signal at 490 nm for 5-8 min at 37° C. […]
Entries and their IC50 values follow.

- STRUCTURE STRING: "Cc1cccc(O[C@@H]2[C@H](O)[C@@H](O)[C@@H](Oc3cccc(C)n3)[C@@H](Cc3ccccc3)S(=O)(=O)[C@@H]2Cc2ccccc2)n1"
  OBSERVED PROPERTY: "IC50"
  REPORTED MEASUREMENT: "10 to 50 µM"
- STRUCTURE STRING: "CN(C)c1nc(CO[C@@H]2[C@H](O)[C@@H](O)[C@@H](OCc3csc(N(C)C)n3)[C@@H](Cc3ccccc3)S(=O)(=O)[C@@H]2Cc2ccccc2)cs1"
  OBSERVED PROPERTY: "IC50"
  REPORTED MEASUREMENT: "< 2 µM"

query: Indicate the recorded IC50 value for this compound: "O=S1(=O)[C@H](Cc2ccccc2)[C@H](OCc2ccccn2)[C@H](O)[C@@H](O)[C@@H](OCc2cccc[n+]2[O-])[C@H]1Cc1ccccc1"
result: < 2 µM

* * *

target: HIV protease (Human immunodeficiency virus type 1 group M subtype B); construct: fluorometric method for measurement of HIV-protease (HIV-PR) activity utilizing a synthetic peptide substrate; assay: biochemical; conditions: HIV protease, fluorogenic peptide substrate, pH 4.7, 37° C.; read-out: Apparent Enzyme IC50
OBSERVED PROPERTY: IC50

- COMPOUND: "N#Cc1ccc(O[C@@H]2[C@H](O)[C@@H](O)[C@@H](Oc3ccc(C#N)cc3)C[S@@+]([O-])[C@@H]2Cc2ccccc2)cc1"
  REPORTED MEASUREMENT: "10 to 50 µM"
- COMPOUND: "O=S1(=O)[C@H](Cc2ccccc2)[C@H](OCc2ccccn2)[C@H](O)[C@@H](O)[C@@H](OCc2ccccn2)[C@H]1Cc1ccccc1"
  REPORTED MEASUREMENT: "< 2 µM"
- COMPOUND: "O=S1(=O)C(Cc2ccccc2)C(NCCCc2ccccc2)[C@H](O)[C@@H](O)[C@@H](OCc2ccccc2)[C@H]1Cc1ccccc1 (stereo partly shown)"
  REPORTED MEASUREMENT: "< 2 µM"
- COMPOUND: "[O-][S+]1CC(OCc2ccccc2)C(O)C(O)C(OCc2ccccc2)C1Cc1ccccc1 (stereo not shown) [107/4]"
  REPORTED MEASUREMENT: "2 to 10 µM"

query: Tell me IC50 of Nc1ccc(OC2C(O)C(O)C(Oc3ccc(N)c(C(F)(F)F)c3)C(Cc3ccccc3)S(=O)(=O)C2Cc2ccccc2)cc1C(F)(F)F (stereo not shown) when tested on HIV protease (Human immunodeficiency virus type 1 group M subtype B).
result: < 2 µM

query: Tell me IC50 of "N#Cc1ccccc1O[C@@H]1[C@H](O)[C@@H](O)[C@@H](Oc2ccccc2C#N)C[S@+]([O-])[C@@H]1Cc1ccccc1" when tested on HIV protease (Human immunodeficiency virus type 1 group M subtype B).
result: 10 to 50 µM

query: Tell me IC50 of O=S1(=O)C(Cc2ccccc2)C(NCc2ccccc2)[C@H](O)[C@@H](O)[C@@H](OCc2ccccc2)[C@H]1Cc1ccccc1 (stereo partly shown) when tested on HIV protease (Human immunodeficiency virus type 1 group M subtype B).
result: < 2 µM

* * *

biological target: HIV protease (Human immunodeficiency virus type 1 group M subtype B); construct: fluorometric method for measurement of HIV-protease (HIV-PR) activity utilizing a synthetic peptide substrate; assay: biochemical
Entries and their IC50 values follow.

query: Indicate the recorded IC50 value for this molecule: O=[N+]([O-])c1ccc(OC2C(O)C(O)C(Oc3ccc([N+](=O)[O-])cc3)C(Cc3ccccc3)S(=O)(=O)C2Cc2ccccc2)cc1 (centres unmarked)
result: < 2 µM

query: Indicate the recorded IC50 value for this molecule: O=[N+]([O-])c1ccc(OC2C(O)C(O)C(Oc3ccc([N+](=O)[O-])c(C(F)(F)F)c3)C(Cc3ccccc3)S(=O)(=O)C2Cc2ccccc2)cc1C(F)(F)F (centres unmarked)
result: < 2 µM

// provenance: patent US5811450A
